Each entry below carries its recorded apparent KD of MS2 coat protein.
- System: MS2 coat protein
- Assay Details: apparent KD of MS2 coat protein; designed switch direction (-1 OFF switch, 1 ON switch): -1; higher = weaker reporter binding
- Details: input ligand: none
Unit nM implied. Number only.

As a guide, the following entries are already answered.
Construct Sequence	apparent KD of MS2 coat protein (nM)
ACAUGAGGAUCACCCAUGUCUGGCUGGUCUGCUCCGGUUGUUGAGGAUAUAGUUCGGUGUUCGCGCUAGAAGGUGAGGGCUGGA [Aenatbe mod 39] (Eterna round: R96, puzzle: Exclusion NG 3)	176
AAUUAUUUUUGAGGAUAUGGUGGUGAAACACCACCAGAAGGCGAGAUAAACAUGAGGAUCACCCAUGUGAGCCUGAUGCUUAUG [Ex NG1 #49] (Eterna round: R96, puzzle: Exclusion NG 1)	17.2

-- ask // apparent KD of MS2 coat protein lookup, key: AUUUUGUCAGGAUAUGAGUAGUAGGACGAAAGUGUUAUUAUUUAGAAGGGACAUGAGGAUCACCCAUGUUCCUC [Bring Us a Shrubbery-03] (Eterna round: R96, puzzle: Exclusion 4)
-- reply 13.7

-- ask // apparent KD of MS2 coat protein lookup, key: UUAACAUGCUGGUGAUCAUACAUGAGGAUCACCCAUGUAACAAGCUUUUUGCUCGUCUUAUAAGAUUACUAGUAUGU [Stov1/10-A1] (Eterna round: R97, puzzle: Sensor, turn-off variant 1)
-- reply 26.4

-- ask // apparent KD of MS2 coat protein lookup, key: UUUGUUUAUGUAGGAUAUGCCUGGCGUGCCUUCGCAGAAGGACAUGAGGAUCACCCAUGUAUUGCGGUCUGCGUUCAGAUCGCG [salish99_ExNG1_r4_029] (Eterna round: R96, puzzle: Exclusion NG 1)
-- reply 43.2

---

- Test system: MS2 coat protein
- Assay Details: apparent KD of MS2 coat protein; higher = weaker reporter binding
- Details: Eterna round: R107; input ligand: arginine 13.2 mM
Readout: apparent KD of MS2 coat protein (nM)
Unit nM implied. Number only.

-- ask // apparent KD of MS2 coat protein lookup, key: GUCCUAAGGUCGGCCGCCACUGUAGAGUGUGAGCCAUCACAUGAGGAUCACCCAUGUUGUUGCUAUAGGACCGGGAUUGUAGGAC [#22 Exclusion Tryptophan B]
-- reply 13.5

-- ask // apparent KD of MS2 coat protein lookup, key: CGAUAUAAGACGGCCGCCACUAUUAAGUAUCAAAAUAAACAUGAGGAUCACCCAUGUACAUGGGAUAGGACCGGGUCCAAUAACG [A2]
-- reply 40.7

-- ask // apparent KD of MS2 coat protein lookup, key: GGACUAACCAGAAGGAGCGACGCGCAGAAACUGCAAAAUCCUCCACACGAGGAUCACCCGUGUCAGGUAGGUCGCUGGUUAGUCG [ArgXB 16 #CuTurnoff #MS2Left #StaticStem #Blueprint]
-- reply 30.2

---

- Test system: MS2 coat protein
- Assay Details: apparent KD of MS2 coat protein; designed switch direction (-1 OFF switch, 1 ON switch): -1; higher = weaker reporter binding
- Details: Eterna round: R95; input ligand: none
Readout: apparent KD of MS2 coat protein (nM)
Unit nM implied. Number only.

As a guide, the following entries are already answered.
Construct Sequence	apparent KD of MS2 coat protein [nM]
GAGGCAUGCUGAGGUCCACACAUGAGGAUCACCCAUGUAAUGACAAGCUUUUUACUCAUCUUAUCGCUAUCGCGUUC [Tiinarre] (puzzle: Sensor v3, turn-off variant 1)	16.3
CGGAGCGUGGGUAGGUGCAACAUGAGGAUCACCCAUGUCUCACAAGCUUUUUGCUCAUCUUAUUGUACCUUGGUGCU [Sensor v3, turn-off variant 1 (MOD of JL v.2)] (puzzle: Sensor v3, turn-off variant 1)	146

-- ask // apparent KD of MS2 coat protein lookup, key: CCAGGCAGUGUGAGGAUAUGCUGGUCCUUGGAUCAGCAGAAGGCACAUGAGGAUCACCCAUGUGAAUAGCUUGG [JL bmx4 3.25] (puzzle: Brourd's mod of Exclusion 4)
-- reply 21.8

-- ask // apparent KD of MS2 coat protein lookup, key: GCAGGAUAAGUGAGGAUAUACCUAUGGAUACAUAGGUAGAAGGCACAUGAGGAUCACCCAUGUUCCUUACCUGC [Fiskers BMX 4 - 66] (puzzle: Brourd's mod of Exclusion 4)
-- reply 13

-- ask // apparent KD of MS2 coat protein lookup, key: AGAUGUAGAUACCGAUCCUACAUGAGGAUCACCCAUGUAGCUAGACGUGCACGCGUAGCUCGUCAGACUACCAGAAG [salish99_TOv1_r3_085] (puzzle: Sensor v3, turn-off variant 1)
-- reply 223

---

Each entry below carries its recorded apparent KD of MS2 coat protein.
- System: MS2 coat protein
- Assay Details: apparent KD of MS2 coat protein; higher = weaker reporter binding
- Details: Eterna round: R107; input ligand: arginine 13.2 mM
Unit nM implied. Number only.

As a guide, the following entries are already answered.
> print(dat)
                         construct.sequence     target.system                          readout  unit.abbrev  readout.value
1  CCCAGUUAUAACAAAGGAAUUAUACUCGAAGGAGCGUCAUAGUAGGCAGGUAGGUCGCGAGACAUGAGGAUCACCCAUGUAGAGA [k,lmullin]  MS2 coat protein  apparent KD of MS2 coat protein           nM           32.1
2  UACAUGAGGAUCACCCAUGUAUGAAUAGAUACCAGAUAAAAUAAGGUCCCUUGGCAGCUAGUGAAUAAAGGGUGGGUAAAAUAAU [Exclusion Theophyline A GF 1]  MS2 coat protein  apparent KD of MS2 coat protein           nM           11.3

Pending sequence:
-- ask // apparent KD of MS2 coat protein lookup, key: GCACCAGGUACGGAUACCAGCUGCCCGAGAUACAUGAGGAUCACCCAUGUGACCUGGUUUAGCCCUUGGCAGCUGUACCUGGUGC [#14 Same State - Theophylline B]
-- reply 13

---

- Tested on: MS2 coat protein
- Assay Details: apparent KD of MS2 coat protein; designed switch direction (-1 OFF switch, 1 ON switch): 1; higher = weaker reporter binding
- Details: input ligand: microRNA oligo, concentration not stated
Readout: apparent KD of MS2 coat protein (nM)
Unit nM implied. Number only.

As a guide, the following entries are already answered.
Construct Sequence	apparent KD of MS2 coat protein [nM]
UACUGAGUCGUAGGAUAUGUAGGAUAUGGCGAGAGCUAAGCUUGGAAGUCACUUCUGCCAGAAGGACAGAAGGACGACUCUCUC [pwkr ssNG2 2FMN + F9.14] (Eterna round: R96, puzzle: Same State NG 2)	237
UGGCUGGUGCUAGGAUAUGCAUGAGGCCUCCUCGUAGAAGGAGCACGACAUGAGGAUCACCCAUGUGGCCGUCCGUAGACGGCU [salish99_SSNG1_r04_013] (Eterna round: R96, puzzle: Same State NG 1)	35.9
UUACAGUGCGGGUAGGAUAUGUAGGGUGGUACAUGAGGAUCACCCAUGUAUCCACCCUUCGACCGGCAGAAGGGCCUGUCACUAC [Atarzale] (Eterna round: R96, puzzle: Same State 2)	12.1
AGUCCAGCCUGAGCUGGACAAAAGCAUGUACAUGAGGAUCACCCAUGUCAUGUACAAGCUUUUUGCAAAUCUUAAUA [Mat - hsa-mir-208a - Mod of JL - D34] (Eterna round: R96, puzzle: Sensor for hsa-mir-208a)	14.6

Pending sequence:
-- ask // apparent KD of MS2 coat protein lookup, key: AAUUUAAUACAUGAGGAUCACCCAUGUAAUACUAGUAAGAUCUAGGAUAUCAGCUCGAUUAGAGCUGAGAAGGAGAUCACAUGU [SSNG3/19-C2] (Eterna round: R96, puzzle: Same State NG 3)
-- reply 82.9

---

- System: K4 kissing-loop RNA reporter;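 further: bound reporter read as fluorescence of individual clusters on recovered sequencing chips by microscopy, with normalized cluster intensities fitted with a binding model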
- Assay Details: apparent KD of K4 kissing-loop reporter; higher = weaker reporter binding
- Details: Eterna round: R107; input ligand: FMN 200 uM
Threshold check on apparent KD of K4 kissing-loop reporter: at or above 0.2 µM gives 1, strictly below gives -1.

Construct Sequence	Assigned Class
UAACAGUCUACGGCCGCCACUGACAAUCGGCAAGCAACAUGUGGGUGCGUAGUGAUGUUACAUAUCAGGACCGGGUAAGACAAAU [theeternabot_sameState_KL_Trp_B_32]	1

Here is another sequence to look at.
-- ask // inclusive: apparent KD of K4 kissing-loop reporter at least 0.2 µM? input: AGCUGUGGCAGAAGGAGCGGCAGUUAUUCUGAUAGUACUCUGAGUGAUGUUCAGAACGACUGUCAGGUAGGUCGCUGUCACAGCU [#02 K4 Arginine B Exclusion]
-- reply 1
